Each recorded value in this set is attributed to patent US20250355001A1.

# tested system: T1, full length human tau protein 2N4R (hT40) (human, UniProt P10636 1-758)
# T1 construct: recombinant; also called T441
# T1 sequence (P10636 other isoform, or with tags, fused parts or gaps limits assumed): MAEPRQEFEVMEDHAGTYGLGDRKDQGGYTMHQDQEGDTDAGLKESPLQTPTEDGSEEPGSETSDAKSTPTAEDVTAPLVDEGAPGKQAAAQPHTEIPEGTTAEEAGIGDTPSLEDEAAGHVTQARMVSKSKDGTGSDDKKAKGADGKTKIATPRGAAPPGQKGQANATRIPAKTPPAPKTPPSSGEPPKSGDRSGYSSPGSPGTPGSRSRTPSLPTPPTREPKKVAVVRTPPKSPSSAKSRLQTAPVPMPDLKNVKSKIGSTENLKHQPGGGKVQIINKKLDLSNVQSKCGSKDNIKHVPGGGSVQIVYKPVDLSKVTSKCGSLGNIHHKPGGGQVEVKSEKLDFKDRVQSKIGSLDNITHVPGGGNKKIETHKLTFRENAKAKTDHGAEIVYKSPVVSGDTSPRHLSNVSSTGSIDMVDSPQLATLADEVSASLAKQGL
# assay explanation: SPR, scAb captured, tau analyte
Listing of recorded kon by entry.
measured parameter: kon

binder: 3bG4 scAb (scFv, not shown: small tags and cut ends, scAb) scFv: QVQLQESGPSLVKPSQTLSLTCTISGFSLISNGVGWVRQAPGKVPEWVGDIASSGKAYSNPALKSRLSITRDTSKSQVSLSLRSVTTEDTAVYYCVRCRDGGVTYGYDIDYWGPGLLVTVSSEGKSSGASGESKVDDQAVLTQPSSVSKSLGQSVSITCSGSTSNVGSGNDVSWFQQVPGSAPKLLFYGATNRASGVPDRFSGSRSGNTATLTITSLQAEDEADYYCGSYDSNSGGIFGSGTRLTVLG
value reported: 6.67e+06 M⁻¹ s⁻¹

binder: S1D12 scAb (scFv, not shown: small tags and cut ends, scAb) scFv: QVQLQESGPSLVKPSQTLSLTCTVSGFSLNNNAVGWVRQAPGKVPESLVGCSSDGTCYYNSALKSRLDITRDTSKNQISLSLSSVTTDDAAVYYCTRGHYSIYGYDYLGTIDYWGPGLLVTVSSEGKSSGASGESKVDDQAVLTQPSSVSGSLGQRVSITCSGSSSNVGGGNSVGWYQHLPGSGLKTIIYDTNSRPSGVPDRFSGSRSGNTATLTINSLQAEDEGDYYCVTGDSTTHDDLVGSGTRLTVLG
value reported: 1.25e+06 M⁻¹ s⁻¹

binder: 3aD3 scAb (scFv, not shown: small tags and cut ends, scAb) scFv: QVQLQESGPSLVKPSQTLSLTCTVSGFSLTSNGVGWVRRAPGKVPEWVGDISSGGKVYGHPALKSRLSITRDTSKSQVSLSVSSVTSEDTAVYYCVRCRDGGVSYGYDSDYWGPGLLVTVSSEGKSSGASGESKVDDQAVVTQPSSVSKSLGQSVSITCSGSSSNVGYGDYVGWFQQVPGSAPKLLIYGVTERASGVPDRFSGSRSGNTATLTISSIQAEDEADYYCASYDDSSGGIFGSGTRLTVLG
value reported: 544000 M⁻¹ s⁻¹

binder: CB7 scAb (scFv, not shown: small tags and cut ends, scAb) scFv: QVQLQESGPSLVKPSQTLSLTCTVSGFSLTNYRVGWVRQAPGKALEWVSNIRSGGTTWYNPALKSRLSITADTSKSQVSLSLSSVTTEDTAVYYCARDSSGDLYAYDYWGPGLLVTVSSEGKSSGASGESKVDDQAVLTQPSSVSRSLGQSVSMTCSGSSSNVGYGNYMAWFQQVPGSAPKLLIYGATSRASGVPDRFSGSRSGNTATLTISSLQAEDEADYYCASYDSTSGGVFGSGTRLTVLG
value reported: 133000 M⁻¹ s⁻¹
